Sourced from patent US20220289765A1

test: Cassette pharmacokinetic test in mice (plasma, brain, CSF); type: in vivo, male CD-1 mice; settings: male, CD-1, mouse, in vivo, po, 3 mg/kg
Value type: bioavailability

>  <Molecule>
CN1CCN(c2ccc(C(=O)Nc3n[nH]c4ccc(Cc5cc(F)cc(F)c5)cc34)c(NC3CCOCC3)c2)CC1 [RXDX-101, Entrectinib]

>  <Observed>
23%

$$$$

* * *

test: Cassette pharmacokinetic test in mice (plasma, brain, CSF); format: in vivo, male CD-1 mice; conditions: male, CD-1, mouse, in vivo, iv, 1 mg/kg
Value type: half-life (h)

>  <Molecule>
CN1CCN(c2ccc(C(=O)Nc3n[nH]c4ccc(Cc5cc(F)cc(F)c5)cc34)c(NC3CCOCC3)c2)CC1 [RXDX-101, Entrectinib]

>  <Value type>
half-life

>  <Uom>
h

>  <Observed>
1.94

$$$$
